target: 5-hydroxytryptamine receptor 2A (Homo sapiens); format: functional, cell-based; further: assay procedure not described here
Sequence (P28223 whole entry): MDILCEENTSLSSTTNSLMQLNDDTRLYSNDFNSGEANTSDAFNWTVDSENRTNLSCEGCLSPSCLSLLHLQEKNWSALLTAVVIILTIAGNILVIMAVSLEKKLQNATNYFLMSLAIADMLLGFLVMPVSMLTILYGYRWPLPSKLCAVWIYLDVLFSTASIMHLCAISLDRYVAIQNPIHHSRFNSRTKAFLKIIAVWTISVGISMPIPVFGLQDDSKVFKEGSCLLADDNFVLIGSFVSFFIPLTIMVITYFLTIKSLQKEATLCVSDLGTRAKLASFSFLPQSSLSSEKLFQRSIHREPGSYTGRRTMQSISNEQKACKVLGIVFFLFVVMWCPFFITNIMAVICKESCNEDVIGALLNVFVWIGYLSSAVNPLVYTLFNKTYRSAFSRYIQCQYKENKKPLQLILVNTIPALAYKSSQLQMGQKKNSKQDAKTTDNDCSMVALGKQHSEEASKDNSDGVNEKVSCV
Assignment: determine reported AC50 for the given molecules.

So the reported AC50 for CN(C)c1cc(NC(=O)CNC(C)(C)C)c(O)c2c1C[C@H]1C[C@H]3[C@H](N(C)C)C(O)=C(C(N)=O)C(=O)[C@@]3(O)C(O)=C1C2=O , on 5-hydroxytryptamine receptor 2A (Homo sapiens), turned out to be > 30 µM

Per the reported 5-hydroxytryptamine receptor 2A (Homo sapiens) data, NS(=O)(=O)c1cc2c(cc1C(F)(F)F)NC(Cc1ccccc1)NS2(=O)=O (stereo not drawn) [BENDROFLUMETHIAZIDE] has AC50 of > 10 µM

Value sought: AC50, system 5-hydroxytryptamine receptor 2A (Homo sapiens), item COCCOC(=O)C1=C(C)NC(C)=C(C(=O)OC/C=C/c2ccccc2)C1c1cccc([N+](=O)[O-])c1 (stereo not drawn) . Result: > 30 µM

AC50 value, target or system 5-hydroxytryptamine receptor 2A (Homo sapiens), for CC(NCCc1ccc(O)cc1)C(O)c1ccc(O)cc1 (stereo not drawn) : > 30 µM

Item CNC(=O)c1cc(Oc2ccc(NC(=O)Nc3ccc(Cl)c(C(F)(F)F)c3)c(F)c2)ccn1 was tested on 5-hydroxytryptamine receptor 2A (Homo sapiens); the reported AC50 is > 30 µM

Tested on 5-hydroxytryptamine receptor 2A (Homo sapiens): Nc1nc(F)nc2c1ncn2[C@@H]1O[C@H](COP(=O)(O)O)[C@@H](O)[C@@H]1O [FLUDARABINE PHOSPHATE] . Observed AC50: > 30 µM

Observed AC50 on 5-hydroxytryptamine receptor 2A (Homo sapiens), entry C[C@@H]1CCC[C@H](C)N1NC(=O)c1ccc(Cl)c(S(N)(=O)=O)c1 [CLOPAMIDE] , equals > 30 µM

The value of AC50 recorded for N=C(N)c1ccc2cc(OC(=O)c3ccc(N=C(N)N)cc3)ccc2c1 when tested on 5-hydroxytryptamine receptor 2A (Homo sapiens) reads > 30 µM

Kindly note: 5-hydroxytryptamine receptor 2A (Homo sapiens), O=C1CN2Cc3c(ccc(Cl)c3Cl)N=C2N1 [ANAGRELIDE] , AC50 value reported: > 30 µM

Case CC(C)N(CCCCOCC(=O)NS(C)(=O)=O)c1cnc(-c2ccccc2)c(-c2ccccc2)n1 , 5-hydroxytryptamine receptor 2A (Homo sapiens), AC50 recorded as 16 µM

Sample O=C(O)c1ccccc1Nc1cccc(C(F)(F)F)c1 , system: 5-hydroxytryptamine receptor 2A (Homo sapiens). Its AC50 is > 30 µM

Record for NS(=O)(=O)c1cc(C(=O)O)cc(N2CCCC2)c1Oc1ccccc1 [PIRETANIDE] under target or system 5-hydroxytryptamine receptor 2A (Homo sapiens): AC50 reported as > 30 µM

Here CCN(CC)CCOC(=O)c1ccc(N)cc1Cl was tested on 5-hydroxytryptamine receptor 2A (Homo sapiens), and its AC50 came to > 30 µM

For the molecule CC[N+]1(C)CCCC(OC(=O)C(O)(c2ccccc2)c2ccccc2)C1 (stereo not drawn) [PIPENZOLATE] , the measured AC50 on 5-hydroxytryptamine receptor 2A (Homo sapiens) was > 30 µM

// molecule CCCN(CC)C(CC)C(=O)Nc1c(C)cccc1C (stereo not drawn) , assay 5-hydroxytryptamine receptor 2A (Homo sapiens), AC50 value: > 30 µM

Summary line: CN1CCN(c2c(F)cc3c(=O)c(C(=O)O)cn4c3c2SCC4)CC1 , 5-hydroxytryptamine receptor 2A (Homo sapiens), reported AC50 = > 30 µM

# lookup: C=CC(N)CCC(=O)O (stereo not drawn) on 5-hydroxytryptamine receptor 2A (Homo sapiens), AC50 = > 10 µM

Simply: CC(C)C[C@H](CN)CC(=O)O , 5-hydroxytryptamine receptor 2A (Homo sapiens), AC50 = > 30 µM
